Subject Of Test: FGF receptor (FGFr)
Run Description: FGFr tyrosine kinase activity, poly E4Y / 32P-ATP phosphorylation assay
Type: biochemical
Stated Conditions: Table 2, Formula I compounds; NI = no inhibition at 100 μg/mL
With a cut-off of 8 µM, any IC50 strictly below it is called Fulfilled; any IC50 meeting it or above is called Not fulfilled.

The examples below pair each entry with its known result.
{"Smiles Record": "Cc1ccc(S(=O)(=O)Nc2cc(SCc3ccccc3Cl)c([N+](=O)[O-])cc2NS(=O)(=O)c2ccc(C)cc2)cc1", "Discrete Label": "Fulfilled"}
{"Smiles Record": "Cc1ccc(S(=O)(=O)Nc2cc(Sc3cccc(C)c3)c([N+](=O)[O-])cc2NS(=O)(=O)c2ccc(C)cc2)cc1", "Discrete Label": "Fulfilled"}

input: Regarding "Cc1ccc(S(=O)(=O)Nc2cc(Sc3ccccc3Cl)c([N+](=O)[O-])cc2NS(=O)(=O)c2ccc(C)cc2)cc1" , kindly confirm whether its IC50 is beneath 8 µM.
output: Not fulfilled

input: Next: "Cc1ccc(S(=O)(=O)Nc2cc(Sc3ccccc3C)c([N+](=O)[O-])cc2NS(=O)(=O)c2ccc(C)cc2)cc1"
output: Not fulfilled

input: Next: "CS(=O)(=O)Nc1cc(Sc2ccc(Cl)cc2)c([N+](=O)[O-])cc1NS(C)(=O)=O"
output: Not fulfilled

input: Next: "Cc1ccc(S(=O)(=O)Nc2cc(Sc3ccccc3)c([N+](=O)[O-])cc2NS(=O)(=O)c2ccc(C)cc2)cc1"
output: Fulfilled

---

Measured IC50, listed per entry.
Subject Of Test: FGF receptor (FGFr)
Run Description: FGFr tyrosine kinase activity, poly E4Y / 32P-ATP phosphorylation assay
Type: biochemical
Stated Conditions: poly E4Y / 32P-ATP; Formula IV compounds
Give the value in µM but do not write µM after it.

Here are 6 compounds together with their reported answers.
{"Smiles Record": "Cc1ccc(S(=O)(=O)Nc2ccc([N+](=O)[O-])c(Sc3ccc(Cl)cc3)c2)cc1", "Recorded Endpoint": "IC50", "Recorded Number": 251}
{"Smiles Record": "COc1ccc(OCc2ccc(OC)c(NS(=O)(=O)c3ccc(C)cc3)c2)cc1", "Recorded Endpoint": "IC50", "Recorded Number": 162}
{"Smiles Record": "Cc1ccc(C(=O)Nc2cc(Sc3ccc(Cl)cc3)c([N+](=O)[O-])cc2NC(=O)c2ccc(C)cc2)cc1", "Recorded Endpoint": "IC50", "Recorded Number": 40}
{"Smiles Record": "Cc1ccc(S(=O)(=O)N(C)c2cc(Sc3ccc(Cl)cc3)c([N+](=O)[O-])cc2N(C)S(=O)(=O)c2ccc(C)cc2)cc1", "Recorded Endpoint": "IC50", "Recorded Number": 254}
{"Smiles Record": "COc1ccc(Oc2ccc(NS(=O)(=O)c3ccc(C)cc3)c(O)c2)cc1", "Recorded Endpoint": "IC50", "Recorded Number": 65}
{"Smiles Record": "Cc1ccc(C(=O)Nc2cc([N+](=O)[O-])c(Sc3ccc(Cl)cc3)cc2N)cc1", "Recorded Endpoint": "IC50", "Recorded Number": 410}

input: Recorded IC50 for "Cc1ccc(S(=O)(=O)Nc2cc([N+](=O)[O-])c(Sc3ccc(Cl)cc3)cc2N)cc1" , please?
output: 2.2

---

Subject Of Test: Recombinant Csk (Homo sapiens, UniProt P41240)
Sequence (P41240 whole entry, species assumed): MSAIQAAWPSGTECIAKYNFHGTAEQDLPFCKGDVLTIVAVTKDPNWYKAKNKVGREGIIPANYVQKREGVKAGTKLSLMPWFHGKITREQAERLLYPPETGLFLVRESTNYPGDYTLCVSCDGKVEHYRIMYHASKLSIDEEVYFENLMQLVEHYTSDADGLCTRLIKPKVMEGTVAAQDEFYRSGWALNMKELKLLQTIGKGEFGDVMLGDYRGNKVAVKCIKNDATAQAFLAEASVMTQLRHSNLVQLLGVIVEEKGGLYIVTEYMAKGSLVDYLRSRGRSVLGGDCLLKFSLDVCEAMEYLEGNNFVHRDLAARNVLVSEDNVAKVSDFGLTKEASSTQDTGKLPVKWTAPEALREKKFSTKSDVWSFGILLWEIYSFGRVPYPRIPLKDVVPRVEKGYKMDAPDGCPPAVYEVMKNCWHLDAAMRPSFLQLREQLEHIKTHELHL
Run Description: Csk tyrosine kinase activity, poly E4Y / 32P-ATP phosphorylation assay
Type: biochemical
Stated Conditions: Table 4, Formula III compounds; NI = no inhibition at 100 μg/mL
Measured IC50, listed per entry.

{"Molecule": "Cc1ccc(S(=O)(=O)Nc2cc(N)c(Sc3ccc(Cl)cc3)cc2NS(=O)(=O)c2ccc(C)cc2)cc1", "Subject Of Test": "Recombinant Csk (Homo sapiens, UniProt P41240)", "IC50": "280 µM"}
{"Molecule": "CC(=O)Nc1cc(NS(=O)(=O)c2ccc(C)cc2)c(NS(=O)(=O)c2ccc(C)cc2)cc1Sc1ccc(Cl)cc1", "Subject Of Test": "Recombinant Csk (Homo sapiens, UniProt P41240)", "IC50": "> 162 µM"}
{"Molecule": "Cc1ccc(S(=O)(=O)Nc2cc(Br)c(Br)cc2NS(=O)(=O)c2ccc(C)cc2)cc1 [Compound 38a]", "Subject Of Test": "Recombinant Csk (Homo sapiens, UniProt P41240)", "IC50": "> 174 µM"}

The record that follows has no IC50 shown yet.
input: Recorded IC50 for "COC(=O)c1cc(NS(=O)(=O)c2ccc(C)cc2)c(NS(=O)(=O)c2ccc(C)cc2)cc1Oc1ccc(OC)cc1" , please?
output: > 168 µM

---

Subject Of Test: Recombinant human Src (Homo sapiens)
Construct: made in house; host or cells: baculovirus-insect cell system
Run Description: Src tyrosine kinase activity, poly E4Y / 32P-ATP phosphorylation assay
Assay type: biochemical
Stated Conditions: Table 2; compound at 15 ug/mL; read-out: % Inhibition at 15 ug/mL Src (%)
Measured inhibition at 15 µg/mL, listed per entry.
Give the figure together with its unit, number first.

Here are 2 molecules together with their reported answers.
{"Molecule": "Cc1ccc(S(=O)(=O)Nc2cc(NCc3ccccc3Cl)c([N+](=O)[O-])cc2NS(=O)(=O)c2ccc(C)cc2)cc1 [Compound 9g]", "Subject Of Test": "Recombinant human Src (Homo sapiens)", "Recorded Endpoint": "inhibition at 15 µg/mL", "Result": "65%"}
{"Molecule": "Cc1ccc(S(=O)(=O)Nc2cc(NCCCc3cn[nH]c3C)c([N+](=O)[O-])cc2NS(=O)(=O)c2ccc(C)cc2)cc1 [Compound 9k]", "Subject Of Test": "Recombinant human Src (Homo sapiens)", "Recorded Endpoint": "inhibition at 15 µg/mL", "Result": "13%"}

input: Recorded inhibition at 15 µg/mL for COc1ccc(CNc2cc(NS(=O)(=O)c3ccc(C)cc3)c(NS(=O)(=O)c3ccc(C)cc3)cc2[N+](=O)[O-])cc1 [Compound 9f] , please?
output: 17%

---

Subject Of Test: Recombinant human Src (Homo sapiens, UniProt P12931)
Construct: made in house; host or cells: baculovirus-insect cell system
Sequence (P12931 whole entry): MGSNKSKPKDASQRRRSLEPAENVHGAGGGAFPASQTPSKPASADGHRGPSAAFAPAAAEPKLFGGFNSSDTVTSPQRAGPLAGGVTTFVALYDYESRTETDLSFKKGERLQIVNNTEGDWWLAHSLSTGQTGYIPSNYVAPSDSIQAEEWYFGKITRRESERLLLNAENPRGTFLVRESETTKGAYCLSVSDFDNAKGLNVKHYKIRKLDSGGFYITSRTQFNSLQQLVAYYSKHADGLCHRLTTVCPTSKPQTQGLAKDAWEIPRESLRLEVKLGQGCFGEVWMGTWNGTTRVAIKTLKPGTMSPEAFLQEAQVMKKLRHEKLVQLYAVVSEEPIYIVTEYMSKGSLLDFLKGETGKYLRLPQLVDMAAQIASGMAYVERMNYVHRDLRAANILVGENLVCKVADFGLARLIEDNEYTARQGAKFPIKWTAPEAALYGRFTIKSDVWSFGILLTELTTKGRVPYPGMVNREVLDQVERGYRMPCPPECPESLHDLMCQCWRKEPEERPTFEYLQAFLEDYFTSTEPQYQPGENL
Run Description: Src tyrosine kinase activity, poly E4Y / 32P-ATP phosphorylation assay
Format: biochemical
Stated Conditions: poly E4Y / 32P-ATP; Formula IV compounds
Measured IC50, listed per entry.
Give the value in µM but do not write µM after it.

{"Compound": "COc1ccc(Oc2ccc(NCc3ccc(NC(C)=O)cc3)c(NS(=O)(=O)c3ccc(C)cc3)c2)cc1 [Compound 71e]", "IC50 [µM]": 203}
{"Compound": "Cc1ccc(C(=O)Nc2ccc(Sc3ccc(Cl)cc3)cc2NC(=O)c2ccc(C)cc2)cc1", "IC50 [µM]": 51}

input: Recorded IC50 for COc1ccc(Oc2ccc(NCc3cc4ccccc4o3)c(NS(=O)(=O)c3ccc(C)cc3)c2)cc1 [Compound 71f] , please?
output: 627

input: Next: "COc1ccc(Oc2ccc(NS(=O)(=O)c3ccc(C)cc3)c(OCC(=O)O)c2)cc1"
output: 169

input: Next: "COc1ccc(Oc2ccc(NS(=O)(=O)c3ccc(C)cc3)c(OP(=O)(O)O)c2)cc1"
output: 13

input: Next: "COc1ccc(Oc2ccc(N(C)S(=O)(=O)c3ccc(C)cc3)c(OC)c2)cc1"
output: 177

input: Next: COc1ccc(Oc2ccc(NS(=O)(=O)c3ccc(C)cc3)c(OCC(O)CO)c2)cc1 (centres unmarked)
output: 189

input: Next: COc1ccc(Oc2ccc(NS(=O)(=O)c3ccc(C)cc3)c(CN)c2)cc1 [Compound 71n]
output: 1300

---

Subject Of Test: Recombinant human Src (Homo sapiens)
Construct: made in house; host or cells: baculovirus-insect cell system
Run Description: Src tyrosine kinase activity, poly E4Y / 32P-ATP phosphorylation assay
Format: biochemical
Stated Conditions: Table 2, Formula I compounds; NI = no inhibition at 100 μg/mL
Measured IC50, listed per entry.
Give the value in µM but do not write µM after it.

Here are 5 molecules together with their reported answers.
{"Smiles Record": "Cc1ccc(S(=O)(=O)Nc2cc(Sc3ccc(F)cc3)c([N+](=O)[O-])cc2NS(=O)(=O)c2ccc(C)cc2)cc1", "IC50 [µM]": 1.8}
{"Smiles Record": "Cc1ccc(S(=O)(=O)Nc2cc(NCc3ccccc3Cl)c([N+](=O)[O-])cc2NS(=O)(=O)c2ccc(C)cc2)cc1", "IC50 [µM]": 54}
{"Smiles Record": "Cc1ccc(S(=O)(=O)Nc2cc(SCc3ccccc3)c([N+](=O)[O-])cc2NS(=O)(=O)c2ccc(C)cc2)cc1", "IC50 [µM]": 1.2}
{"Smiles Record": "Cc1ccc(Sc2cc(NS(=O)(=O)c3ccc(C)cc3)c(NS(=O)(=O)c3ccc(C)cc3)cc2[N+](=O)[O-])cc1", "IC50 [µM]": 1.7}
{"Smiles Record": "CS(=O)(=O)Nc1cc(Sc2ccc(Cl)cc2)c([N+](=O)[O-])cc1NS(C)(=O)=O", "IC50 [µM]": 590}

input: Recorded IC50 for "Cc1ccc(S(=O)(=O)Nc2cc(Sc3ccccc3C(C)C)c([N+](=O)[O-])cc2NS(=O)(=O)c2ccc(C)cc2)cc1" , please?
output: 1.3

input: Next: "Cc1ccc(S(=O)(=O)Nc2cc(Sc3ccccc3C)c([N+](=O)[O-])cc2NS(=O)(=O)c2ccc(C)cc2)cc1"
output: 1.7

input: Next: "COc1ccc(CSc2cc(NS(=O)(=O)c3ccc(C)cc3)c(NS(=O)(=O)c3ccc(C)cc3)cc2[N+](=O)[O-])cc1"
output: 1.3

input: Next: "Cc1ccc(S(=O)(=O)Nc2cc(Sc3c(C)cccc3C)c([N+](=O)[O-])cc2NS(=O)(=O)c2ccc(C)cc2)cc1"
output: 1

input: Next: "COc1ccc(Sc2cc(NS(=O)(=O)c3ccc(C)cc3)c(NS(=O)(=O)c3ccc(C)cc3)cc2[N+](=O)[O-])cc1"
output: 3.4

input: Next: "Cc1ccc(S(=O)(=O)Nc2cc(Sc3ccccc3)c([N+](=O)[O-])cc2NS(=O)(=O)c2ccc(C)cc2)cc1"
output: 1.3

input: Next: "Cc1ccc(S(=O)(=O)Nc2cc(Sc3ccccc3Cl)c([N+](=O)[O-])cc2NS(=O)(=O)c2ccc(C)cc2)cc1"
output: 2.5

input: Next: "Cc1ccc(S(=O)(=O)Nc2cc(Sc3cccc(C)c3)c([N+](=O)[O-])cc2NS(=O)(=O)c2ccc(C)cc2)cc1"
output: 1.9
